- test-name: Plasma protein binding in monkey
- Format: ADME, cell-free, Macaca mulatta
- run-parameters: rhesus monkey, read-out: PPB
measure: fraction unbound

[Q] I'd like to know its fraction unbound. The compound in question is `CCc1cc(/C(C)=N/OCc2ccc(C3CCCCC3)c(C(F)(F)F)c2)ccc1CN1CC(C(=O)O)C1`
[A] < 0.001

----------
- test-name: Oral bioavailability in rat
- Assay type: ADME, organism-based
- run-parameters: in vivo
measure: bioavailability (%)
One number for each entry, in %.

[Q] I'd like to know its bioavailability. The molecule in question is `CCc1cc(/C(C)=N/OCc2ccc(C3CCCCC3)c(C(F)(F)F)c2)ccc1CN1CC(C(=O)O)C1`
[A] 50

----------
- test-name: Drug absorption in rat
- Type: ADME, organism-based
- run-parameters: in vivo, read-out: Fabs
measure: Fa (%)
Numbers only, in %.

[Q] I'd like to know its Fa. The molecule in question is `CCc1cc(/C(C)=N/OCc2ccc(C3CCCCC3)c(C(F)(F)F)c2)ccc1CN1CC(C(=O)O)C1`
[A] 58

----------
- test-name: Plasma protein binding in rat
- Format: ADME, cell-free
- run-parameters: read-out: PPB
measure: fraction unbound

[Q] I'd like to know its fraction unbound. The compound in question is CCc1cc(/C(C)=N/OCc2ccc(C3CCCCC3)c(C(F)(F)F)c2)ccc1CN1CC(C(=O)O)C1 [SIPONIMOD]
[A] < 0.001

----------
- target-system: Sphingosine 1-phosphate receptor 3 (Homo sapiens, UniProt Q99500)
- Sequence (Q99500 whole entry): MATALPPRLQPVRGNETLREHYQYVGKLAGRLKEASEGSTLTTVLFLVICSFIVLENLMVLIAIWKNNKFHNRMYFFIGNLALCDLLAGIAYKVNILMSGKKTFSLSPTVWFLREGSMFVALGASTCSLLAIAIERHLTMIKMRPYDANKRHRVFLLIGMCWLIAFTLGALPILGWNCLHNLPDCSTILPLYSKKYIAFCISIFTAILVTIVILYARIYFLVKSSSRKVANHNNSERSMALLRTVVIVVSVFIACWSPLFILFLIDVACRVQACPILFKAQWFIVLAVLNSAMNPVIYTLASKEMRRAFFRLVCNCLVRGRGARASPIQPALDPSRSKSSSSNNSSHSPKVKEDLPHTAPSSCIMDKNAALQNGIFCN
- test-name: Agonist activity at human S1P3 receptor transfected in CHO cells at 10 uM incubated for 10 to 15 mins prior to GTPgamma35S addition measured after 120 mins by GTPgamma35S binding assay relative to S1P
- Assay type: functional, cell-based
If the reported Emax equals or exceeds 60%, assign True. If not, assign False.

{"molecular-string": "C/C(=N\\OCc1ccc(C2CCCCC2)c(C(F)(F)F)c1)c1ccc(CNCCC(=O)O)nc1", "target-system": "Sphingosine 1-phosphate receptor 3 (Homo sapiens, UniProt Q99500)", "cat": "False"}
{"molecular-string": "CCc1cc(/C(C)=N/OCc2ccc(C3CCCCC3)c(C(F)(F)F)c2)ccc1CNCCC(=O)O", "target-system": "Sphingosine 1-phosphate receptor 3 (Homo sapiens, UniProt Q99500)", "cat": "False"}
{"molecular-string": "C/C(=N\\OCc1ccc(C2CCCCC2)c(C(F)(F)F)c1)c1ccc(CNCCC(=O)O)c(Cl)c1", "target-system": "Sphingosine 1-phosphate receptor 3 (Homo sapiens, UniProt Q99500)", "cat": "False"}
{"molecular-string": "C/C(=N\\OCc1ccc(C2CCCCC2)c(C(F)(F)F)c1)c1ccc(CN2CC(C(=O)O)C2)c(C)c1", "target-system": "Sphingosine 1-phosphate receptor 3 (Homo sapiens, UniProt Q99500)", "cat": "True"}

[Q] Determine whether measured Emax meets or exceeds 60% for `C/C(=N\OCc1ccc(C2CCCCC2)c(C(F)(F)F)c1)c1ccc(CNCCC(=O)O)cn1`
[A] False

[Q] Determine whether measured Emax meets or exceeds 60% for `CCc1cc(/C(C)=N/OCc2ccc(C3CCCCC3)c(C(F)(F)F)c2)ccc1CN1CC(C(=O)O)C1`
[A] False

[Q] Determine whether measured Emax meets or exceeds 60% for `C/C(=N\OCc1ccc(C2CCCCC2)c(C(F)(F)F)c1)c1ccc(CNCCC(=O)O)c(Br)c1`
[A] True

[Q] Determine whether measured Emax meets or exceeds 60% for `C/C(=N\OCc1ccc(C2CCCCC2)c(C(F)(F)F)c1)c1ccc(CNCCC(=O)O)s1`
[A] True

[Q] Determine whether measured Emax meets or exceeds 60% for `C/C(=N\OCc1ccc(C2CCCCC2)c(C(F)(F)F)c1)c1ccc(CNCCC(=O)O)c(C2CC2)c1`
[A] True

[Q] Determine whether measured Emax meets or exceeds 60% for `C/C(=N\OCc1ccc(C2CCCCC2)c(C(F)(F)F)c1)c1ccc(CNCCC(=O)O)c(C)c1`
[A] True

[Q] Determine whether measured Emax meets or exceeds 60% for `C/C(=N\OCc1ccc(C2CCCCC2)c(C(F)(F)F)c1)c1ccc(CNCCC(=O)O)o1`
[A] True

----------
- target-system: UniProt Q99500
- test-name: Agonist activity at human S1P3 receptor transfected in CHO cells incubated for 10 to 15 mins prior to GTPgamma35S addition measured after 120 mins by GTPgamma35S binding assay
Criterion: EC50 strictly under 3000 nM. Met: Satisfied. Not met: Not satisfied.

{"molecular-string": "C/C(=N\\OCc1ccc(C2CCCCC2)c(C(F)(F)F)c1)c1ccc(CNCCC(=O)O)c(F)c1", "cat": "Satisfied"}

[Q] A record lists `C/C(=N\OCc1ccc(C2CCCCC2)c(C(F)(F)F)c1)c1ccc(CNCCC(=O)O)s1` . Is its EC50 below 3000 nM?
[A] Not satisfied

[Q] A record lists `C/C(=N\OCc1ccc(C2CCCC2)c(C(F)(F)F)c1)c1ccc(CNCCC(=O)O)cc1` . Is its EC50 below 3000 nM?
[A] Satisfied

[Q] A record lists `C/C(=N\OCc1ccc(-c2cccs2)c(C(F)(F)F)c1)c1ccc(CNCCC(=O)O)cc1` . Is its EC50 below 3000 nM?
[A] Not satisfied

[Q] A record lists `C/C(=N\OCc1ccc(C2CCCCC2)c(C(F)(F)F)c1)c1ccc(CNCCC(=O)O)nc1` . Is its EC50 below 3000 nM?
[A] Not satisfied

[Q] A record lists `CCc1cc(/C(C)=N/OCc2ccc(C3CCCCC3)c(C(F)(F)F)c2)ccc1CN1CC(C(=O)O)C1` . Is its EC50 below 3000 nM?
[A] Not satisfied

[Q] A record lists `C/C(=N\OCc1ccc(C2CCCCC2)c(C(F)(F)F)c1)c1ccc(CNCCC(=O)O)c(Br)c1` . Is its EC50 below 3000 nM?
[A] Satisfied

[Q] A record lists `C/C(=N\OCc1ccc(C2CCCCC2)c(C(F)(F)F)c1)c1ccc(CNCCC(=O)O)cn1` . Is its EC50 below 3000 nM?
[A] Satisfied

----------
- test-name: Clearance in rat
- Format: ADME, organism-based
- run-parameters: in vivo
measure: clearance (mL/min/kg)
One number for each entry, in mL/min/kg.

[Q] I'd like to know its clearance. The compound in question is `CCc1cc(/C(C)=N/OCc2ccc(C3CCCCC3)c(C(F)(F)F)c2)ccc1CN1CC(C(=O)O)C1`
[A] 6

----------
- test-name: Volume of distribution at steady state in monkey
- Type: ADME, organism-based, Macaca mulatta
- run-parameters: rhesus monkey, in vivo; read-out: Vdss
measure: Vd (L/kg)
Give bare numbers, in L/kg.

[Q] I'd like to know its Vd. The molecule in question is CCc1cc(/C(C)=N/OCc2ccc(C3CCCCC3)c(C(F)(F)F)c2)ccc1CN1CC(C(=O)O)C1 [SIPONIMOD]
[A] 2.12

----------
- target-system: UniProt:P21453
- Sequence (P21453 whole entry): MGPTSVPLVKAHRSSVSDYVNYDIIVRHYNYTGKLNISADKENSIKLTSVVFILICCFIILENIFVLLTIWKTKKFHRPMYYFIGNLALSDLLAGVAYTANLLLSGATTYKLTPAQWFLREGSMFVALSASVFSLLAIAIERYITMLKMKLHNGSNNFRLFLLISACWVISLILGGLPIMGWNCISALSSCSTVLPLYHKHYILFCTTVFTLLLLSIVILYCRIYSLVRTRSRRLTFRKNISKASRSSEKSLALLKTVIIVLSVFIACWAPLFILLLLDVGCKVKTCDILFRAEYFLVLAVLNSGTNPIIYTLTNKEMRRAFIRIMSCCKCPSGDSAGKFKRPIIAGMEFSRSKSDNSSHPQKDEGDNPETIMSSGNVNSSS
- test-name: Agonist activity at human S1P1 receptor transfected in CHO cells incubated for 10 to 15 mins prior to GTPgamma35S addition measured after 120 mins by GTPgamma35S binding assay
- Format: functional, cell-based
Can you tell me log10(EC50) for the items I'm about to list?
Scale: decimal log of EC50, EC50 in µM.

Please review the following examples before continuing.
{"molecular-string": "C/C(=N\\OCc1ccc(C2CCCCC2)c(C(F)(F)F)c1)c1ccc(CNCCC(=O)O)nc1", "log10(EC50)": -2.59}
{"molecular-string": "C/C(=N\\OCc1ccc(-c2ccc(C)cc2)c(C(F)(F)F)c1)c1ccc(CNCCC(=O)O)cc1", "log10(EC50)": -1.03}
{"molecular-string": "C/C(=N\\OCc1ccc(-c2ccc(F)cc2)c(C(F)(F)F)c1)c1ccc(CNCCC(=O)O)cc1", "log10(EC50)": -1.96}
{"molecular-string": "C/C(=N\\OCc1ccc(-c2ccccc2)c(C(F)(F)F)c1)c1ccc(CNCCC(=O)O)cc1", "log10(EC50)": -2.05}

Items follow; give log10(EC50) for each.
1. C/C(=N\OCc1ccc(-c2ccccc2C(F)(F)F)cc1)c1ccc(CNCCC(=O)O)cc1
2. C/C(=N\OCc1ccc(C2CCCCC2)c(C(F)(F)F)c1)c1ccc(CNCCC(=O)O)c(Cl)c1
3. C/C(=N\OCc1ccc(-c2ccc(C(F)(F)F)cc2)cc1)c1ccc(CNCCC(=O)O)cc1

[A]
1: 0.23; 2: -3.22; 3: 1.00

Items follow; give log10(EC50) for each.
1. C/C(=N\OCc1ccc(C2CCCCC2)c(C(F)(F)F)c1)c1ccc(CNCCC(=O)O)c(C2CC2)c1
2. C/C(=N\OCc1ccc(-c2ccc(C)cc2)cc1)c1ccc(CNCCC(=O)O)cc1

[A]
[-3.40, -0.19]

----------
- test-name: Plasma protein binding in human
- Format: ADME, cell-free
- run-parameters: read-out: PPB
measure: fraction unbound

[Q] I'd like to know its fraction unbound. The molecule in question is `CCc1cc(/C(C)=N/OCc2ccc(C3CCCCC3)c(C(F)(F)F)c2)ccc1CN1CC(C(=O)O)C1`
[A] < 0.001

Taken from ChEMBL document CHEMBL2331139.
